biological target: Serine/threonine-protein kinase PAK 3 (Homo sapiens); details: at 0.1 µM;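 note: mean percent inhibition of PAK3, measured in a screen of the GSK published kinase inhibitor set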
Measured Property: inhibition (%)
Answer with a number only, understood to be in %.

O=C1NC(=O)C(N2CCc3ccccc32)=C1c1ccc(Cl)cc1 | 5.1

Dear colleague, I am looking for the recorded inhibition of the following compound: CCn1c(-c2nonc2N)nc2c(N3CCCC3)nccc21
-2.72

Next up: Nc1nc(-c2ccccn2)c(-c2ccc3ncccc3n2)s1
3.03

Next up: CNC(=O)c1cncc(/C=C/c2c(Cl)cccc2Cl)c1
4.45

----------
Measured inhibition, listed per entry.
target: Serine/threonine-protein kinase Chk2 (Homo sapiens) (UniProt O96017); conditions: at 1 µM;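 note: reported value is the mean inhibition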
Sequence (O96017 whole entry): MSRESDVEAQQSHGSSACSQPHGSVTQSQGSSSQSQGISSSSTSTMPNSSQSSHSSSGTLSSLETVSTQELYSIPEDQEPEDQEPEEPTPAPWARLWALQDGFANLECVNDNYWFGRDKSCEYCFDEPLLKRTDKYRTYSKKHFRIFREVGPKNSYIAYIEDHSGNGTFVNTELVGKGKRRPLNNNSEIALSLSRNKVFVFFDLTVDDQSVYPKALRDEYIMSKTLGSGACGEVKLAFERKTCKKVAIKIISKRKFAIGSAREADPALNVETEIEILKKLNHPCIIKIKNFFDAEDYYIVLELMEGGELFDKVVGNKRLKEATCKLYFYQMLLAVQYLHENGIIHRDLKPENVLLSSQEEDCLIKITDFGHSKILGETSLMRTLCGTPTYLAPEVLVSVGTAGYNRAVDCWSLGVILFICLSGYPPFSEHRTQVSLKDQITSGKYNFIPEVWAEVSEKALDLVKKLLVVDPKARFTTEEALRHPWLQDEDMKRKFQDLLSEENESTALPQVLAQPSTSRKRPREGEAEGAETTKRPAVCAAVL
Answer with a number only, understood to be in %.

Nc1ncnc2occ(-c3ccc(NC(=O)Nc4cc(C(F)(F)F)cc(C(F)(F)F)c4)cc3)c12 | 2.14
Nc1nc(-c2ccccn2)c(-c2ccc3ncccc3n2)s1 | 4.44
CCCN1CCC=C(c2ccc(Nc3nc(Nc4ccccc4C(N)=O)c4cc[nH]c4n3)c(C)c2)C1 | 51.3
O=C1NC(=O)C(c2cccc(Cl)c2)=C1Nc1ccc(O)c(Cl)c1 | 2.07
CCn1c(-c2nonc2N)nc2c(C#CC(C)(C)O)nc(OC[C@@H](N)c3ccccc3)cc21 | 1.05

Dear colleague, I am looking for the recorded inhibition of the following compound: CNC(=O)c1cncc(/C=C/c2c(Cl)cccc2Cl)c1
9.62

Next up: CCN1CCC(CC(=O)Nc2n[nH]c3nc(-c4cccs4)c(Br)cc23)CC1
-3.75

Next up: CC(=O)Nc1cccc(C#Cc2cncnc2Nc2ccc(OCc3cccc(F)c3)c(Cl)c2)n1
4.37

Next up: NS(=O)(=O)c1cccc(-c2ccc3c(NC(=O)C4CC4)n[nH]c3c2)c1
-2.43

----------
target: MAP kinase-activated protein kinase 3 (Homo sapiens); details: at 1 µM
Description: GSK_PKIS: MAPKAPK3 mean inhibition at 1 uM [Nanosyn]
Measured inhibition, listed per entry.
Answer with a number only, understood to be in %.

Which measured inhibition belongs to NS(=O)(=O)c1ccc(N/N=C2\C(=O)Nc3ccc(C(=O)NCCc4c[nH]cn4)cc32)cc1 , tested on MAP kinase-activated protein kinase 3 (Homo sapiens)?
3.57

Next up: COc1ccc(-c2ccncc2)cc1C(N)=O
12.5

Next up: CCn1c(-c2nonc2N)nc2cncc(C(=O)N3CC[C@H](N)C3)c21
4.01

Next up: c1cnn2ncc(-c3ccnc(Nc4ccc5c(c4)OCCO5)n3)c2c1
3.81

Next up: O=C1NC(=O)C(c2ccc(Cl)cc2)=C1Nc1ccc(Cl)c(C(=O)O)c1
-1

----------
target: Tyrosine-protein kinase ABL2 (Homo sapiens); conditions: at 0.1 µM;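 note: values are mean percent inhibition of ARG (ABL2), measured within the GSK PKIS set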
Binning rule for recorded inhibition: 1 = under 2%, 2 = from 2% up to 4%, 3 = 4% and over

For COc1cc(C)c(NC(=O)CN(C)C)cc1Nc1nc(Nc2cccc(F)c2C(N)=O)c2cc[nH]c2n1 , which inhibition bin applies?
1

Next up: CCn1c(-c2nonc2N)nc2cncc(C(=O)N3CCNCC3)c21
1

Next up: CC1=C(C(=O)Nc2ccc3[nH]ncc3c2)C(c2ccc(F)cc2)NC(=O)N1 (stereo not given)
2

----------
molecular target: Serine/threonine-protein kinase pim-3 (Homo sapiens) (UniProt Q86V86); conditions: at 1 µM
Description: GSK_PKIS: PIM3 mean inhibition at 1 uM [Nanosyn]
Measured Property: inhibition (%)
Answer with a number only, understood to be in %.

Take a look at these entries with their results.
CNC(=O)c1cncc(/C=C/c2c(Cl)cccc2Cl)c1 | 7.42
CCn1c(-c2nonc2N)nc2cncc(C(=O)N3CC[C@H](N)C3)c21 | 78.9
NC(=O)c1ccc(-c2nc(-c3ccccn3)c(-c3ccc4c(c3)OCO4)[nH]2)cc1 | 0.3
CN1CCC(C(=O)Nc2n[nH]c3nnc(-c4ccccc4)cc23)CC1 | 3.84

Dear colleague, I am looking for the recorded inhibition of the following molecule: COc1ccc2cc(-c3c(-c4ccncc4)nc(-c4ccc([S+](C)[O-])cc4)n3C)ccc2c1 (configuration not stated)
-3.85

Next up: COC(=O)Nc1nc2cc(Oc3ccc(NC(=O)Nc4cccc(C(=O)O)c4)cc3)ccc2[nH]1
3.84

Next up: Cc1cccc(-c2n[nH]cc2-c2ccc3ncccc3n2)n1
-1.14

----------
target: Ephrin type-A receptor 4 (Homo sapiens); details: at 1 µM
Description: GSK_PKIS: EPHA4 mean inhibition at 1 uM [Nanosyn]
Measured inhibition, listed per entry.
Answer with a number only, understood to be in %.

Take a look at these entries with their results.
CCn1c(-c2nonc2N)nc2ccncc21 | -7.03
COc1ccc(-c2coc3ncnc(N)c23)cc1 | 3.15
CNC(=O)c1cncc(/C=C/c2c(Cl)cccc2Cl)c1 | 43.6
Cc1ccc(C(=O)NC2CCCCC2)cc1-c1ccc(C(=O)NCC2CC2)cc1 | 3.57
CS(=O)(=O)Nc1ccc(N/C=C2\C(=O)Nc3ccccc32)cc1 | -2.53

Query compound follows.
Which measured inhibition belongs to O=C1NC(=O)C(c2ccccc2Cl)=C1Nc1cccc(O)c1 , tested on Ephrin type-A receptor 4 (Homo sapiens)?
2.36

----------
Measured inhibition, listed per entry.
molecular target: Serine/threonine-protein kinase MRCK alpha (Homo sapiens) (UniProt Q5VT25); conditions: at 0.1 µM;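 note: each inhibition figure is a mean value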
Sequence (Q5VT25 whole entry): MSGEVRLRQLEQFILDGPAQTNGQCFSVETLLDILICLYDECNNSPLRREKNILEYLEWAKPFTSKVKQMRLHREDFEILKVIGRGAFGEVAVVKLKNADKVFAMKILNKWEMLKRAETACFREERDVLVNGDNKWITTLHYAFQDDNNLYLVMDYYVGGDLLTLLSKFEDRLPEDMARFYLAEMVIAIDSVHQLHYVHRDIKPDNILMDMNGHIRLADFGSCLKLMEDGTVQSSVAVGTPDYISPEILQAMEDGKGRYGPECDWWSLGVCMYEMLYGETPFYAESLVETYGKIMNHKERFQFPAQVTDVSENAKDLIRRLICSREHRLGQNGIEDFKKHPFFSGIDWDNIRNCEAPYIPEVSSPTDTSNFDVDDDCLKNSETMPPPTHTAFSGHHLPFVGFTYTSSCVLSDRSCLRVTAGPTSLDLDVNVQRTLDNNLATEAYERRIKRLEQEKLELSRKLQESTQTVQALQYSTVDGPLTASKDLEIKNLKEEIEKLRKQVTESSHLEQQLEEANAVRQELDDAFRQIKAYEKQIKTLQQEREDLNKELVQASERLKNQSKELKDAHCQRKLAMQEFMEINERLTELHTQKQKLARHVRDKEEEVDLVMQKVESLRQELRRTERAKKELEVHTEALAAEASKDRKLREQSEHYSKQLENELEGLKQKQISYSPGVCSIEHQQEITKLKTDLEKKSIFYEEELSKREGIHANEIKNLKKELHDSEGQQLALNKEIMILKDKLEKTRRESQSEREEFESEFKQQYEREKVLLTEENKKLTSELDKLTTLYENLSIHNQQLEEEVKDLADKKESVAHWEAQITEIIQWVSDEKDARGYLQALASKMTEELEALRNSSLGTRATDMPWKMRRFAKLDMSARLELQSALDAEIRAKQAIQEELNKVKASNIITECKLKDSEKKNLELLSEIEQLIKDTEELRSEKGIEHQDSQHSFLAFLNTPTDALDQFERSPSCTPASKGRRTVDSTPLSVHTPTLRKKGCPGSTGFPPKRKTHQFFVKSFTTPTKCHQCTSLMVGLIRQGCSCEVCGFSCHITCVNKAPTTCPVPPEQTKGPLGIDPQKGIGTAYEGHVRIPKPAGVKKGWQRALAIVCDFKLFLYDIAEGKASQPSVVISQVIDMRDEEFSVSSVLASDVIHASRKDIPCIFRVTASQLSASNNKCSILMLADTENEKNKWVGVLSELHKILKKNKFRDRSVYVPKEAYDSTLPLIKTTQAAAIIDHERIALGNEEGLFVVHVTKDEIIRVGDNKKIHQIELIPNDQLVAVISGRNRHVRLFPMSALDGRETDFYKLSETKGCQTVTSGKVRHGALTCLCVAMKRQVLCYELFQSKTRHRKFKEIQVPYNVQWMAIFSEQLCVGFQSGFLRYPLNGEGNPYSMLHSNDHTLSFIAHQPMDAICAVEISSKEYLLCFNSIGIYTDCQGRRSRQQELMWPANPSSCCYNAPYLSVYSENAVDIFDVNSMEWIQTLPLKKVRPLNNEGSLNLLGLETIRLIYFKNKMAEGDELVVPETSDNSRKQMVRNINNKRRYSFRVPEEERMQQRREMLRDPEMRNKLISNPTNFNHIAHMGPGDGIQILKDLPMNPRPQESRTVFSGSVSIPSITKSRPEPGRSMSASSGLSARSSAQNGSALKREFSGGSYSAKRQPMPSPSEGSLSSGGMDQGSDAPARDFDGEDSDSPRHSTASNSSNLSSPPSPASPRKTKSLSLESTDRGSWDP
Answer with a number only, understood to be in %.

NS(=O)(=O)c1cccc(-c2ccc3c(NC(=O)C4CC4)n[nH]c3c2)c1 | 0.11
CCN1CCC(CC(=O)Nc2n[nH]c3nc(-c4cccs4)c(Br)cc23)CC1 | -1
CS(=O)(=O)CCN(CC#N)Cc1ccc(-c2ccc3ncnc(Nc4ccc(OCc5cccc(F)c5)c(Cl)c4)c3c2)o1 | -0.15

Dear colleague, I am looking for the recorded inhibition of the following compound: O=C1NC(=O)C(c2ccc(Cl)cc2)=C1Nc1ccc(Cl)c(C(=O)O)c1
-0.29

Next up: CCCN1CCC(Oc2cc(Nc3nc(Nc4cccc(F)c4C(N)=O)c4cc[nH]c4n3)c(OC)cc2Cl)CC1
0.81

Next up: NC(=O)c1ccc(-c2nc(-c3ccccn3)c(-c3ccc4c(c3)OCO4)[nH]2)cc1
0.14

----------
test system: Platelet-derived growth factor receptor alpha (Homo sapiens), P16234 [V561D]; settings: at 1 µM
Sequence (P16234 whole entry V561D): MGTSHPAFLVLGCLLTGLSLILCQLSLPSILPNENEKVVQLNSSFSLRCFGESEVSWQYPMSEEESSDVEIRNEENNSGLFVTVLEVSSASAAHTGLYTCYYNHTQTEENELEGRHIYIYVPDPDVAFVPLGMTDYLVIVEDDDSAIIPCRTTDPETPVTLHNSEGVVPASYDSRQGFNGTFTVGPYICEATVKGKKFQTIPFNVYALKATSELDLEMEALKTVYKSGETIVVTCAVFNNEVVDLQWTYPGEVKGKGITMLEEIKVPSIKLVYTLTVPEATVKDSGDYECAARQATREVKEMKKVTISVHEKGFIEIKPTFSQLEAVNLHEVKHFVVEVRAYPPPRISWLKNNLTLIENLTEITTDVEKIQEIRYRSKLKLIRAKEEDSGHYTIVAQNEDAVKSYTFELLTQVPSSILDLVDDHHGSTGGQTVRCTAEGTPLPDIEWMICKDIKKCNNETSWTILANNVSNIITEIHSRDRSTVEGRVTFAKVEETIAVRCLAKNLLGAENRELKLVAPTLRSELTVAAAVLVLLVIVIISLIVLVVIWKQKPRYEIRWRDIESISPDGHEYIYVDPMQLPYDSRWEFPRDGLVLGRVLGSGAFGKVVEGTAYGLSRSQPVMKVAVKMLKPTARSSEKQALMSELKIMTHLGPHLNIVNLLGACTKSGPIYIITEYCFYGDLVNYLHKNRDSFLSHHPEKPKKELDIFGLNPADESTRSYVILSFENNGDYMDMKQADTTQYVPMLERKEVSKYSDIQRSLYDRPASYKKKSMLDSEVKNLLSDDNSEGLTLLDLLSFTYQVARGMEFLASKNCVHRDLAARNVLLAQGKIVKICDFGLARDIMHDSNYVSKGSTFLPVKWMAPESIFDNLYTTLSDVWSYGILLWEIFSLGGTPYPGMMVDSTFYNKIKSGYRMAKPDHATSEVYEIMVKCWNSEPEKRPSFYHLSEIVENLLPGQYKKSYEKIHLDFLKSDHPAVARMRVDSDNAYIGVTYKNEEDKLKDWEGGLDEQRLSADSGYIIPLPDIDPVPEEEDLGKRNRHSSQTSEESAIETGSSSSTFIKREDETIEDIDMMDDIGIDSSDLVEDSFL
Returns one of true or false; true when inhibition is >= 40%.

Examples with answers:
COc1ccc(-c2coc3ncnc(N)c23)cc1 | false
NC(=O)c1ccc(-c2nc(-c3ccccn3)c(-c3ccc4c(c3)OCO4)[nH]2)cc1 | false
Fc1cccc(COc2ccc(Nc3ncnc4cc(-c5ccc[nH]5)sc34)cc2Cl)c1 | false
CCN1CCC(CC(=O)Nc2n[nH]c3nc(-c4cccs4)c(Br)cc23)CC1 | false
COC(=O)Nc1nc2cc(Oc3cccc(NC(=O)Nc4cc(C(F)(F)F)ccc4F)c3)ccc2[nH]1 | true

Is reported inhibition greater than or equal to 40% here: COc1cc2ncn(-c3cc(O[C@H](C)c4ccccc4Cl)c(C(N)=O)s3)c2cc1OC
true

Next up: COC(=O)Nc1nc2cc(Oc3ccc(NC(=O)Nc4cccc(C(=O)O)c4)cc3)ccc2[nH]1
true

Next up: NS(=O)(=O)c1cccc(-c2ccc3c(NC(=O)C4CC4)n[nH]c3c2)c1
false

Next up: Cc1ccc(C(=O)NC2CCCCC2)cc1-c1ccc(C(=O)NCC2CC2)cc1
false

Next up: COc1ccc(-c2nn3ncccc3c2-c2ccnc(Nc3ccc(Cl)c(C(F)(F)F)c3)n2)cc1
false

Next up: COc1cc(C=NNc2ncnc3c2cnn3-c2ccccc2)ccc1O
true

Next up: CCn1c(-c2nonc2N)nc2c(N3CCCC3)nccc21
false

----------
target: Misshapen-like kinase 1 (Homo sapiens) (UniProt Q8N4C8); conditions: at 1 µM
Sequence (Q8N4C8 whole entry, looked up): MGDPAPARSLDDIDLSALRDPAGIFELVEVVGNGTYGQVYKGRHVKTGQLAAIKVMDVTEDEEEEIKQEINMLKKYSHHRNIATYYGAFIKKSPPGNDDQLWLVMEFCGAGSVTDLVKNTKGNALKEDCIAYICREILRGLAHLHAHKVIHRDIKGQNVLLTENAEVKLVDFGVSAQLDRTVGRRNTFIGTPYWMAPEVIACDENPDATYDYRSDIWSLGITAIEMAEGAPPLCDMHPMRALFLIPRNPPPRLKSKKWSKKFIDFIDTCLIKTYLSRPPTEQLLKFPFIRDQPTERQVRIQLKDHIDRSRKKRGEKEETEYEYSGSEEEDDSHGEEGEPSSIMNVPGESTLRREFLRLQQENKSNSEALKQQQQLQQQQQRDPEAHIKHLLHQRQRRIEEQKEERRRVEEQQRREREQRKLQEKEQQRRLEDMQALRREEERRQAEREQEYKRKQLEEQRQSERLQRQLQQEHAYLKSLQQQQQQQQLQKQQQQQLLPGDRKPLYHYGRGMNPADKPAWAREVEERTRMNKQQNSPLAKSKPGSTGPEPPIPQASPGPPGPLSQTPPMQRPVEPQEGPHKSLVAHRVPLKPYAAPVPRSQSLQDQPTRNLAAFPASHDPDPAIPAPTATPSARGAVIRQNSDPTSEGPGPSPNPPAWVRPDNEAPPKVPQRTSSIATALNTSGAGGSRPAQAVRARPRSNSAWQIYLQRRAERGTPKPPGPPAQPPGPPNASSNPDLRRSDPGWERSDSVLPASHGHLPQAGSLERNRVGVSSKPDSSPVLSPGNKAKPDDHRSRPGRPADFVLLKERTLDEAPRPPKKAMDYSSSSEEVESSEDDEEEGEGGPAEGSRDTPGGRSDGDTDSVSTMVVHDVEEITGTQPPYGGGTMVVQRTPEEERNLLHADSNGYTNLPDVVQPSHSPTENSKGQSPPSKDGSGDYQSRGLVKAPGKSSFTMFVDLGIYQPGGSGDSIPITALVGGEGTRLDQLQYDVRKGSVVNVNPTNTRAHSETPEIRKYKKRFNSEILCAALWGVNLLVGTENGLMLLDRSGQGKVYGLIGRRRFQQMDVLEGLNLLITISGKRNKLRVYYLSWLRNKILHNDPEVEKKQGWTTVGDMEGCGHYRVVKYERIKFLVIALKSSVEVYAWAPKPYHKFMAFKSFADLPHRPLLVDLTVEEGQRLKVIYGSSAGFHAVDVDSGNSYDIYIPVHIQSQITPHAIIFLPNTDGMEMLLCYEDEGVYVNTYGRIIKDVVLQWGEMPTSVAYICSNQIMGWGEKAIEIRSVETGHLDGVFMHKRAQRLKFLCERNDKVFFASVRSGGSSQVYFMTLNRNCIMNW
Description: GSK_PKIS: MINK mean inhibition at 1 uM [Nanosyn]
Returns one of Satisfied or Not satisfied; Satisfied when inhibition is >= 8%.

Cc1cc(O)cc(C)c1/C=C/c1cncc(-c2nn[nH]n2)c1 | Satisfied

Is reported inhibition greater than or equal to 8% here: CCCN1CCC(Oc2cc(Nc3nc(Nc4cccc(F)c4C(N)=O)c4cc[nH]c4n3)c(OC)cc2Cl)CC1
Not satisfied

Next up: NCc1ccc(-c2nc(-c3ccc(Cl)c(O)c3)c(-c3ccncc3)[nH]2)cc1
Satisfied

Next up: NS(=O)(=O)c1ccc(N/N=C2\C(=O)Nc3ccc(C(=O)NCCc4c[nH]cn4)cc32)cc1
Satisfied

Next up: COc1ccc(-c2coc3ncnc(N)c23)cc1
Satisfied

Next up: CS(=O)(=O)CCNCc1ccc(-c2ccc3ncnc(Nc4ccc(OCc5cccc(F)c5)c(C(F)(F)F)c4)c3c2)o1
Not satisfied

----------
Target: Cytoplasmic tyrosine-protein kinase BMX (Homo sapiens) (UniProt P51813)
Sequence (whole entry): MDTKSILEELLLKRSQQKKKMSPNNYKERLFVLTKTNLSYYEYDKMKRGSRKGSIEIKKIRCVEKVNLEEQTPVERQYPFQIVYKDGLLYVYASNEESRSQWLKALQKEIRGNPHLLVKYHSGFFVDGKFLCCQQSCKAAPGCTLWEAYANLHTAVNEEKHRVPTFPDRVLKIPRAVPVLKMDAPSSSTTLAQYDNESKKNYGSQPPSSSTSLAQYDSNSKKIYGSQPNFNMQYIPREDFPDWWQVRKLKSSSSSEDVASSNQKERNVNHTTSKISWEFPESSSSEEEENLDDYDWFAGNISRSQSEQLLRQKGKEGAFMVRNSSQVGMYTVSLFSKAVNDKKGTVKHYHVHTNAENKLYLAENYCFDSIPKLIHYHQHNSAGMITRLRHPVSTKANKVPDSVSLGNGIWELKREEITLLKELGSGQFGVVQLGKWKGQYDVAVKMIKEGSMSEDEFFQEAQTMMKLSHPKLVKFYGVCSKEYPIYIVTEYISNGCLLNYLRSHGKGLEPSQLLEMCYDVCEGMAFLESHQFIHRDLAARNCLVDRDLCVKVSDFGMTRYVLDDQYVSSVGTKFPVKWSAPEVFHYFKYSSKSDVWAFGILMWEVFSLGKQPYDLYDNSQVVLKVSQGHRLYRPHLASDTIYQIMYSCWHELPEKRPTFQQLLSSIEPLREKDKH
Conditions: at 0.1 µM
Description: GSK_PKIS: BMX mean inhibition at 0.1 uM [Nanosyn]
Returns one of MET or NOT MET; MET when inhibition is >= 3%.

Examples with answers:
CCn1c(-c2nonc2N)nc2cncc(C(=O)N3CCNCC3)c21 | MET
Cn1cc(C=C2C(=O)Nc3cccnc32)c2ccccc21 | MET
COc1cc(C)c(NC(=O)CN(C)C)cc1Nc1nc(Nc2cccc(F)c2C(N)=O)c2cc[nH]c2n1 | NOT MET

Is reported inhibition greater than or equal to 3% here: N#Cc1c(NC(=O)c2cccc3ccccc23)sc2c1CCCC2
MET

Next up: COc1cc2ncn(-c3cc(O[C@@H](C)c4ccccc4Cl)c(C(N)=O)s3)c2cc1OC
NOT MET

Next up: COc1ccc(-c2ccncc2)cc1C(N)=O
MET
